biological target: H3 hemagglutinin (A/Brisbane/10/2007) (influenza A virus A/Brisbane/10/2007 (H3N2)); assay: ELISA on coated HA, relative Kd (4-parameter fit)
pKd: −log10 of the molar value.
parameter: pKd

1. Ab 031 (antibody, V domains shown) VH: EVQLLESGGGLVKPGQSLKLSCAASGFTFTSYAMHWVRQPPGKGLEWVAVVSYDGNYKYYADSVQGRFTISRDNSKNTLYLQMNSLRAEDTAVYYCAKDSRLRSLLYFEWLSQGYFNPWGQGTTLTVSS VL: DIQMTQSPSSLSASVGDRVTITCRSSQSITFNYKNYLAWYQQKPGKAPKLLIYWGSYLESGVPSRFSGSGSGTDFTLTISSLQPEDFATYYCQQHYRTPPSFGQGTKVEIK : 10.17
2. Ab 005 (antibody, V domains shown) VH: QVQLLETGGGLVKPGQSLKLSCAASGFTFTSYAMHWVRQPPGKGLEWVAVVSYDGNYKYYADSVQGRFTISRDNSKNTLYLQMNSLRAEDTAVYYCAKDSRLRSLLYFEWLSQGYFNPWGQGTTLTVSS VL: DIVMTQSPDTVAVTVGERATINCKSSQTVTFNYKNYLAWYQQKPGQPPKLLIYWASTRESGVPDRFSGSGSGTDFTLTISSLQAEDVAVYYCQQHYRTPPSFGQGTKLDIK : 10.28
